# System: wild-type HCT-116 cells
# experiment: Cell proliferation (MTS), wild-type HCT-116
# Type: cell-based
# test context: Homo sapiens, 240 h; wild-type HCT-116, 10 days with compound, MTS reading; read-out: IC50 HCT116 WT
Criterion: IC50 strictly under 200 nM. Met: yes (1). Not met: no (0).

Query: Decide: IC50 of CN(C(=O)c1cc2c(cc1Cl)nc(N)c1cnn(C)c12)C1COc2cc(C#Cc3ccn(C)n3)ccc21 (centres unmarked) strictly below 200 nM?
Response: yes (1)

Query: Decide: IC50 of Cc1cn(C)nc1C#Cc1ccc2c(c1)OC[C@H]2N(C)C(=O)c1cc2c(cc1Cl)nc(N)c1cnn(C)c12 [Compound 81A] strictly below 200 nM?
Response: yes (1)

Query: Decide: IC50 of Cc1c(C#Cc2ccc3c(c2)OC[C@H]3N(C)C(=O)c2ccc3nc(N)c4cnn(C)c4c3c2)cnn1C [Compound 29A] strictly below 200 nM?
Response: no (0)

Query: Decide: IC50 of CN(C(=O)c1cc2c(cc1Cl)nc(N)c1cnn(C)c12)[C@@H]1COc2cc(C#Cc3cccnc3F)ccc21 [Compound 56A] strictly below 200 nM?
Response: yes (1)

Query: Decide: IC50 of Cc1ccc(C#Cc2ccc3c(c2)OC[C@H]3N(C)C(=O)c2cc3c(cc2F)nc(N)c2cnn(C)c23)cn1 [Compound 59A] strictly below 200 nM?
Response: no (0)

Query: Decide: IC50 of Cc1cc2nc(N)c3cnn(C)c3c2cc1C(=O)N(C)[C@@H]1COc2cc(C#Cc3cnn(C(F)F)c3)ccc21 [Compound 83A] strictly below 200 nM?
Response: yes (1)

Query: Decide: IC50 of CN(C(=O)c1cc2c3c(c(N)nc2cc1F)COC3)C1COc2cc(C#Cc3cnn(C)c3)ccc21 (centres unmarked) strictly below 200 nM?
Response: no (0)

Query: Decide: IC50 of Cc1c(C#Cc2ccc3c(c2)OCC3N(C)C(=O)c2cc3c(cc2F)nc(N)c2cnn(C)c23)cnn1C (centres unmarked) strictly below 200 nM?
Response: no (0)

Query: Decide: IC50 of Cc1cncc(C#Cc2ccc3c(c2)OC[C@H]3N(C)C(=O)c2cc3c(cc2F)nc(N)c2cnn(C)c23)c1 [Compound 47A] strictly below 200 nM?
Response: no (0)

Query: Decide: IC50 of CN(C(=O)c1cc2c(cc1F)nc(N)c1cnn(C)c12)C1COc2cc(C#Cc3ccn(C)n3)ccc21 (centres unmarked) strictly below 200 nM?
Response: no (0)

Query: Decide: IC50 of CC(C)n1cc(C#Cc2ccc3c(c2)OC[C@H]3N(C)C(=O)c2ccc3nc(N)c4cnn(C)c4c3c2)cn1 [Compound 19A] strictly below 200 nM?
Response: no (0)

Query: Decide: IC50 of CN(C(=O)c1ccc2nc(N)c3cnn(C)c3c2c1)C1COc2cc(C#Cc3cn(C)nc3C(F)(F)F)ccc21 (centres unmarked) strictly below 200 nM?
Response: no (0)

Query: Decide: IC50 of CN(C(=O)c1cc2c3c(c(N)nc2cc1Cl)COC3)[C@@H]1COc2cc(C#Cc3cccnc3F)ccc21 [Compound 61A] strictly below 200 nM?
Response: no (0)

* * *

# experiment: PK experiment in mice
# test context: mouse, plasma, po, 10 mg/kg
Would you kindly list Cmax for each of these compounds?
Kindly answer with a numeric value in ng/mL, unit omitted.

Query: Query (compound): "CN(C(=O)c1cc2c(cc1F)nc(N)c1cnn(C)c12)[C@@H]1COc2cc(C#Cc3cnn(C)c3)ccc21" ; field requested: Cmax
Response: 2220

Query: Query (compound): Cn1ncc(-c2ccc3c(=O)[nH]nc(CN)c3c2)c1-c1c(F)c(Cl)cc(OC2CC2)c1C#N (atropisomer, axis not shown) [Reference Example 6, reference compound] ; field requested: Cmax
Response: 428

* * *

# experiment: Human liver microsome stability
# Format: in vitro ADME
# test context: pH 7.4; human liver microsomes 0.5 mg/mL, compound 1 µM, NADPH 1 mM, 37 °C
Tag: 1.0 if measured half-life at 1 µM is not below 30 min, 0.0 if it is.

Query: Kindly determine if half-life at 1 µM recorded for Cc1nn(C)cc1C#Cc1ccc2c(c1)OC[C@H]2N(C)C(=O)c1cc2c3c(c(N)nc2cc1Cl)COC3 [Compound 50A] is above or exactly 30 min.
Response: 1.0

Query: Kindly determine if half-life at 1 µM recorded for CN(C(=O)c1cc2c3c(c(N)nc2cc1Cl)COC3)[C@@H]1COc2cc(C#Cc3cnn(C)c3)ccc21 [Compound 40A] is above or exactly 30 min.
Response: 1.0

Query: Kindly determine if half-life at 1 µM recorded for CN(C(=O)c1ccc2nc(N)c3cnn(C)c3c2c1)C1COc2cc(C#Cc3cnn(C4CC4)c3)ccc21 (stereo not shown) is above or exactly 30 min.
Response: 1.0

Query: Kindly determine if half-life at 1 µM recorded for Nc1nc2cnc(C(=O)N3CCOC[C@@H]3c3ccc(C(F)(F)F)cc3)cc2c2c1COC2 [Reference Example 7, reference compound] is above or exactly 30 min.
Response: 0.0

Query: Kindly determine if half-life at 1 µM recorded for C#Cc1ccc2c(c1)OCC2N(C)C(=O)c1ccc2nc(N)c3cnn(C)c3c2c1 (stereo not shown) [Reference Example 2] is above or exactly 30 min.
Response: 1.0

Query: Kindly determine if half-life at 1 µM recorded for "CN(C(=O)c1cc2c(cc1F)nc(N)c1cnn(C)c12)[C@@H]1COc2cc(C#Cc3cnn(C)c3)ccc21" is above or exactly 30 min.
Response: 1.0

Query: Kindly determine if half-life at 1 µM recorded for C#Cc1ccc2c(c1)OCC2N(C)C(=O)c1cc2c(cc1F)nc(N)c1cnn(C)c12 (stereo not shown) [Reference Example 1, reference compound] is above or exactly 30 min.
Response: 0.0

* * *

# System: wild-type HCT-116 cells
# experiment: Cell proliferation (MTS), wild-type HCT-116
# Assay type: cell-based
# test context: Homo sapiens, 240 h; wild-type HCT-116, 10 days with compound, MTS reading; read-out: IC50 HCT116 WT
Would you kindly list pIC50 for each of these compounds?
Quick note: pIC50 means taking -log10 of the concentration in moles per liter.

Query: What measured pIC50 is associated with CCN(C(=O)c1ccc2nc(N)c3cnn(C)c3c2c1)C1COc2cc(C#Cc3cnn(C)c3)ccc21 (stereo not shown) [Compound 7] on wild-type HCT-116 cells?
Response: 6.23

Query: What measured pIC50 is associated with CC(C)n1cc(C#Cc2ccc3c(c2)OCC3N(C)C(=O)c2ccc3nc(N)c4cnn(C)c4c3c2)cn1 (stereo not shown) [Compound 19] on wild-type HCT-116 cells?
Response: 6.01

Query: What measured pIC50 is associated with CN(C(=O)c1ccc2nc(N)c3cnn(C)c3c2c1)C1COc2cc(C#Cc3cnn(C(F)F)c3)ccc21 (stereo not shown) [Compound 30] on wild-type HCT-116 cells?
Response: 5.76

Query: What measured pIC50 is associated with Cc1cc2nc(N)c3cnn(C)c3c2cc1C(=O)N(C)[C@@H]1COc2cc(C#Cc3cnn(C)c3)ccc21 [Compound 10A] on wild-type HCT-116 cells?
Response: 7.55

Query: What measured pIC50 is associated with CN(C(=O)c1cc2c3c(c(N)nc2cc1Cl)COC3)[C@@H]1COc2cc(C#Cc3cnn4c3CCC4)ccc21 [Compound 88A] on wild-type HCT-116 cells?
Response: 6.11

Query: What measured pIC50 is associated with CN1CCn2c(C#Cc3ccc4c(c3)OCC4N(C)C(=O)c3cc4c(cc3F)nc(N)c3cnn(C)c34)cnc2C1 (stereo not shown) [Compound 46] on wild-type HCT-116 cells?
Response: 6.33

Query: What measured pIC50 is associated with CN(C(=O)c1cc2c(cc1F)nc(N)c1cnn(C)c12)C1COc2nc(C#Cc3cnn(C)c3)ccc21 (stereo not shown) [Compound 33] on wild-type HCT-116 cells?
Response: 6.25

* * *

# test system: hERG (Homo sapiens)
# Construct: purchased ThermoFisher Scientific PV5365
# Sequence (Q12809 whole entry): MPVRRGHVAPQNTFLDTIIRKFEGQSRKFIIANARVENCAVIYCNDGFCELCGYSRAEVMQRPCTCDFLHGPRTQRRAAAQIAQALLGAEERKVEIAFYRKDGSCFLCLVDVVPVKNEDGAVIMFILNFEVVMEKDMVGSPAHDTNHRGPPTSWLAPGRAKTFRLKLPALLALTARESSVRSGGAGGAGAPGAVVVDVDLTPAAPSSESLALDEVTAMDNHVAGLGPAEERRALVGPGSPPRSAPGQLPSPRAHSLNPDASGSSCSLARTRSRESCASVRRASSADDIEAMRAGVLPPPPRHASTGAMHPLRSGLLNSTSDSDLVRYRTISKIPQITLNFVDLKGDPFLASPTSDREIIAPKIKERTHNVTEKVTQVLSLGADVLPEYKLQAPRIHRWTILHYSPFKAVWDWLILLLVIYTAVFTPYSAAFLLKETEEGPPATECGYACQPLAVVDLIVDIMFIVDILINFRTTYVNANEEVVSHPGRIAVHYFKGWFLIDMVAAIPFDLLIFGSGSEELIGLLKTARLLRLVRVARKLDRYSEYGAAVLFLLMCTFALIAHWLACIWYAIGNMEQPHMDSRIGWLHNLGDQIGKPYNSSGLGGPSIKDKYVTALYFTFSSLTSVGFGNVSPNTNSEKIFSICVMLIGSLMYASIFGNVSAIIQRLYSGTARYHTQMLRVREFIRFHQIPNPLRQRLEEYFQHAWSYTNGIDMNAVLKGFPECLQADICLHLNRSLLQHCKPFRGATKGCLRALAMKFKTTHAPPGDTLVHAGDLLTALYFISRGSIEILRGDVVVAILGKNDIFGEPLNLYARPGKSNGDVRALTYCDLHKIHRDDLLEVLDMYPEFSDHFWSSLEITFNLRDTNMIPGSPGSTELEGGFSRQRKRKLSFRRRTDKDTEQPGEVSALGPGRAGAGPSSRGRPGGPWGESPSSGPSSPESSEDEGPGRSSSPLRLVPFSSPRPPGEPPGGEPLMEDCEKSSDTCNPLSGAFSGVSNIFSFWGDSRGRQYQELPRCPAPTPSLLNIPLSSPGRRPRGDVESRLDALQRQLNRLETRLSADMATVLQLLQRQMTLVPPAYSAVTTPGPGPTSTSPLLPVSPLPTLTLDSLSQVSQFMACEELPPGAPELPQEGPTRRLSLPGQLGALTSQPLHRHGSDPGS
# experiment: hERG test (Predictor hERG Fluorescence Polarization Assay Kit)
# Format: binding
# test context: human, probe Predictor hERG Tracer Red, 10 µM test substance, three duplicate wells
reported property: inhibition at 3.5 h, 10 µM
Could you write the number and then its unit?

Query: Query (molecule): Cc1ncccc1C#Cc1ccc2c(c1)OCC2N(C)C(=O)c1cc2c(cc1F)nc(N)c1cnn(C)c12 (stereo not drawn) ; field requested: inhibition at 3.5 h, 10 µM
Response: 21%

Query: Query (molecule): CN(C(=O)c1cc2c3c(c(N)nc2cc1Cl)COC3)C1COc2cc(C#Cc3cnn(C)c3)ccc21 (stereo not drawn) ; field requested: inhibition at 3.5 h, 10 µM
Response: 22%

Query: Query (molecule): CN(C(=O)c1cc2c(cc1F)nc(N)c1cnn(C)c12)[C@@H]1COc2cc(C#Cc3cnc4n3CCCC4)ccc21 [Compound 66A] ; field requested: inhibition at 3.5 h, 10 µM
Response: 14.2%

Query: Query (molecule): Cc1c(C#Cc2ccc3c(c2)OC[C@H]3N(C)C(=O)c2cc3c4c(c(N)nc3cc2Cl)COC4)cnn1C [Compound 52A] ; field requested: inhibition at 3.5 h, 10 µM
Response: 10.4%

Query: Query (molecule): Cc1ncccc1C#Cc1ccc2c(c1)OC[C@H]2N(C)C(=O)c1cc2c3c(c(N)nc2cc1Cl)COC3 [Compound 57A] ; field requested: inhibition at 3.5 h, 10 µM
Response: 14.2%

Query: Query (molecule): CN1CCn2c(C#Cc3ccc4c(c3)OC[C@H]4N(C)C(=O)c3cc4c(cc3F)nc(N)c3cnn(C)c34)cnc2C1 [Compound 46A] ; field requested: inhibition at 3.5 h, 10 µM
Response: 43.9%
